system: HEK293; assay: Selectivity ratio of Ki for human 5-HT7 receptor expressed in HEK293 cells to Ki for human 5-HT1A receptor expressed in HEK293 cells; assay type: cell-based
I'd appreciate it if you could supply Ratio Ki values for the items below.
Numbers only.

Examples with their reported Ratio Ki follow.
>>> observed_measurement("NC(=O)[C@@H]1CCCN1C(=O)CCCCCN1CCN(c2ccc(F)cc2)CC1")
2
>>> observed_measurement("NC(=O)[C@@H]1CCCN1C(=O)CCCCCN1CCN(c2ccccc2Cl)CC1")
6
>>> observed_measurement("COc1ccccc1N1CCN(Cc2ccc(C(=O)N3Cc4ccccc4C[C@H]3C(N)=O)cc2)CC1")
7

Give me Ratio Ki for each of these compounds, listed below.
1. NC(=O)[C@@H]1CCCN1C(=O)CCCCCN1CCN(c2ccccc2F)CC1
2. CSc1ccccc1N1CCN(CCCCCCC(=O)N2CCC[C@H]2C(N)=O)CC1
3. NC(=O)[C@@H]1CCCN1C(=O)CCCCN1CCN(c2ccccc2O)CC1
4. COc1ccccc1N1CCN(CCCCC(=O)N2CCC[C@H]2C(N)=O)CC1

[22, 21, 36, 3]

Please look up its Ratio Ki: NC(=O)[C@@H]1CCCN1C(=O)CCCCCN1CCN(c2cccc(Cl)c2)CC1
13

###

tested on: HEK293; test: Selectivity ratio of Ki for human 5-HT1A receptor expressed in HEK293 cells to Ki for human 5-HT7 receptor expressed in HEK293 cells; assay type: cell-based
What Ratio Ki was measured for each of the following?
Answers are plain numbers.

>>> observed_measurement("NC(=O)[C@@H]1Cc2ccccc2CN1C(=O)CCCCCN1CCN(c2ccc(F)cc2)CC1")
6

# ---- query compound ----
# Ratio Ki lookup, item NC(=O)[C@@H]1CCCN1C(=O)CCCCCCN1CCN(c2noc3ccccc23)CC1
1

###

system: HEK293; assay: Selectivity ratio of Ki for human 5-HT1A receptor expressed in HEK293 cells to Ki for human 5-HT7 receptor expressed in HEK293 cells; format: cell-based
READOUT LABEL: Ratio Ki

Completed entries (count: 3):
>>> observed_measurement("CSc1ccccc1N1CCN(CCCCCCC(=O)N2Cc3ccccc3C[C@H]2C(N)=O)CC1")
"< 1"
>>> observed_measurement("CSc1ccccc1N1CCN(CCCCCCC(=O)N2CCC[C@H]2C(N)=O)CC1")
"< 1"
>>> observed_measurement("NC(=O)[C@@H]1Cc2ccccc2CN1C(=O)c1ccc(CN2CCN(c3cccc(Cl)c3Cl)CC2)cc1")
"< 1"

I have 5 compounds here; please give me Ratio Ki for each one.
1. NC(=O)[C@@H]1Cc2ccccc2CN1C(=O)CCCCCN1CCN(c2cccc(Cl)c2)CC1
2. NC(=O)[C@@H]1CCCN1C(=O)CCCCCN1CCN(c2cccc(Cl)c2Cl)CC1
3. COc1ccccc1N1CCN(CCCCCC(=O)N2Cc3ccccc3C[C@H]2C(N)=O)CC1
4. NC(=O)[C@@H]1CCCN1C(=O)CCCCN1CCN(c2ccccc2O)CC1
5. COc1ccccc1N1CCN(CCCCC(=O)N2Cc3ccccc3C[C@H]2C(N)=O)CC1

1. < 1
2. < 1
3. < 1
4. < 1
5. < 1

###

Molecular target: 5-hydroxytryptamine receptor 1A (Homo sapiens, UniProt P08908)
Sequence (P08908 whole entry): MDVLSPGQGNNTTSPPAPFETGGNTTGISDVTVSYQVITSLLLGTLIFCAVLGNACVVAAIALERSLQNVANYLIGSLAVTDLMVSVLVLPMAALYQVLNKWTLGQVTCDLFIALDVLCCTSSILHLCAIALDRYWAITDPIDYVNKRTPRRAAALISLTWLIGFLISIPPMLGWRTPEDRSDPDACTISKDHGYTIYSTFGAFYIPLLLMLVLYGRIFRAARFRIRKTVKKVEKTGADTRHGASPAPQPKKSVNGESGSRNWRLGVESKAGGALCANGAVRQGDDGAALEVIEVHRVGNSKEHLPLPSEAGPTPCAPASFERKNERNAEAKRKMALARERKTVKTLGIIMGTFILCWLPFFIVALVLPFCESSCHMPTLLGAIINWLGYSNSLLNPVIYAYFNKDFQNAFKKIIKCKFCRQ
Exercise: for every item that follows, state its recorded pKi.
Give bare numbers, as −log10 of the molar value.

Lab note: each compound below needs its pKi filled in.
1. CSc1ccccc1N1CCN(CCCCC(=O)N2CCC[C@H]2C(N)=O)CC1
2. NC(=O)[C@@H]1CCCN1C(=O)CCCCN1CCN(c2ccccc2O)CC1

1. 7.33
2. 7.28
